tested on: SF-268 CNS; test: NCI tumour cell line growth inhibition, 48 h
Output yes for TGI not less than 40 µM; output no otherwise.

Molecule | Group
Cc1ccc(NC(=O)C(=O)C2NC(=S)NC2=O)c([N+](=O)[O-])c1 (stereo not given) | yes
CCCC(=O)Nc1cc([N+](=O)[O-])c([N+](=O)[O-])cc1OC | no
Cc1nc(N)sc1N=Nc1cc(Cl)c([N+](=O)[O-])cc1Cl | yes
Cc1nc2c(n1CCC(C)C)C(=O)c1ccccc1C2=O | yes
Cc1ccc(S(=O)(=O)N/N=C/c2oc(-c3ccccc3Cl)c(-c3ccccc3Cl)c2[N+](=O)[O-])cc1 | yes
COc1cccc(C2C(C(=O)O)=C(CO)Oc3cc4c(cc32)OCO4)c1 (stereo not given) | yes
CN(C)CC(C)(C)C(/C=C/c1ccccc1)=N\Nc1ccccc1 | no
COc1ccc2c(c1)C(=O)/C(=C/c1ccc([N+](=O)[O-])s1)O2 | no
O=C(Nc1ccccc1)Nn1c(-c2cccs2)nc2ccc(I)cc2c1=O | yes
Cc1cc(N(CCC#N)CCC#N)ccc1/C(N=Nc1ccccc1)=N\NC(=O)c1ccccc1 | yes
Cn1cnc([N+](=O)[O-])c1SC1=NCCS1 | yes
O=C1Nc2ccccc2/C1=C/c1ccccc1 | no
C=CCOC(=O)CCCCCCCCCCCCCCCOC(=O)c1c(CCC[C@@H](C)O[Si](C)(C)C(C)(C)C)nc(=O)n2c1CC[C@H]2CC1(CC/C=C\[C@H](CC)O[Si](C(C)C)(C(C)C)C(C)C)OCCO1 | yes
O=C(Nc1nncs1)NS(=O)(=O)n1cnc2ccccc21 | yes
O=C1C=CC[C@H](/C=C/C[C@@H](O)C[C@H](O)/C=C/c2ccccc2)O1 | no
O=C(NCC(=O)N1CC[C@H](NC2CCC(O)(c3ccc(-c4ncccn4)cn3)CC2)C1)c1cccc(C(F)(F)F)c1 (stereo not given in full) | yes
O=C(CC(O)c1ccncc1)c1ccccc1 (stereo not given) | yes
COc1cc(C(=O)/C=C/c2c(-c3ccc(F)cc3)nc3ncccn23)cc(OC)c1OC | no
CC1CC(=O)C(CC(=O)O)C1C(C(=O)C(=O)Nc1c(C#N)cccc1[N+](=O)[O-])[N+](=O)[O-] (stereo not given) | yes

###

test system: SF-295 CNS; assay: NCI tumour cell line growth inhibition, 48 h
Let's look at some molecules and their measured TGI.

Molecule | Target of assay | TGI
CCOC(=O)C1(C(=O)OCC)CSC1 | SF-295 CNS | > 100 µM
CCCCCCCCCCCCSC(=NC)NC | SF-295 CNS | 3.86 µM
O=C1OC2c3ccccc3C(=O)C2(c2ccccc2)N1c1ccccc1 (stereo unspecified) | SF-295 CNS | > 200 µM
CC(C)/C(Cl)=N\OC(=O)Nc1ccc(F)c([N+](=O)[O-])c1 | SF-295 CNS | 37.9 µM
O=C1SC(c2ccccc2)(c2ccccc2)c2ccccc21 | SF-295 CNS | > 100 µM
COc1ccc(N=Nc2c(C)c(C#N)c(=S)n(C3OC(COC(C)=O)C(OC(C)=O)C(OC(C)=O)C3OC(C)=O)c2-c2ccccc2)cc1 (stereo unspecified) | SF-295 CNS | 82.1 µM
CC1(C)N=C(N)N=C(N)N1c1ccc(OCC(=O)N2CCOCC2)c(Cl)c1 | SF-295 CNS | > 100 µM
Cc1cc(Cl)ccc1NC(=O)CC1SC(N)=NC1=O (stereo unspecified) | SF-295 CNS | > 100 µM
S=P1(c2ccccc2)Nc2ccc(Cl)cc2N1 (stereo unspecified) | SF-295 CNS | > 100 µM
O=c1oc2ccc(F)cc2c(=O)n1-c1ccc(Cl)cc1F | SF-295 CNS | 3.66 µM
COc1ccc(/C=C(\C(=O)OCC(C)C)c2ccc(OC)c(OC)c2)cc1OC | SF-295 CNS | > 100 µM
